B1: CD2-associated protein, residues 271 to 331; numbered along this chain, Q9Y5K6 (parent)
chain: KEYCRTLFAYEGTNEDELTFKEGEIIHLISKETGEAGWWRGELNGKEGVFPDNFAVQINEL

Variants of: B1
assay.explanation: abundance fitness (aPCA) (normalised: wild type 0, dead -1); higher = more abundant; growth selection in yeast, the domain comes from the species named
condition.description: Homo sapiens
assay.endpoint: abundance fitness
Answers are plain numbers.

Hi there! I need abundance fitness for each item below, if you can.
1. F8Q
2. G48C

result:
1. 0.074
2. -1.01

Hi there! I need abundance fitness for each item below, if you can.
1. S30C
2. T33E
3. D16S
4. F20H
5. T6L
6. T19L
7. T19Y

result:
-0.365
-0.471
-0.003
-0.603
-0.88
-0.814
-0.422
